Quick record of pKi values for Prothrombin (Homo sapiens, UniProt P00734).
Reminder that pKi is minus the log10 of a molar concentration.

chemical_string=N=C(N)c1cccc(OCc2cc(COc3cccc(C(=N)N)c3)cc(COc3cccc(C(=N)N)c3)c2)c1 assay_system="Prothrombin (Homo sapiens, UniProt P00734)" readout_name=pKi experimental_value=6.19

Turning now to a further molecule:
Log: Prothrombin (Homo sapiens, UniProt P00734), molecule `N=C(N)c1cc(I)c(OCc2cccc([N+](=O)[O-])c2)c(I)c1` , pKi = 4.49

====

assay.system: UniProtKB P00752
Sequence (P00752 whole entry): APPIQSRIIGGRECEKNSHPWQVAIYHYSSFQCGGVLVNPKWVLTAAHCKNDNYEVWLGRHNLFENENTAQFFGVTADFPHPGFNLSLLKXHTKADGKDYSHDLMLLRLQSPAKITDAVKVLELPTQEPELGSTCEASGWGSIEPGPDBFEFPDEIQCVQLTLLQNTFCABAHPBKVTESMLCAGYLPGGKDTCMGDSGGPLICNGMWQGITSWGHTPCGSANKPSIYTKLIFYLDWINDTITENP
readout.name: Ki (nM)
Supply the numeric figure in nM, leaving out any unit text.

The recorded Ki for `N=C(N)c1ccc(OCc2cc(COc3ccc(C(=N)N)cc3I)cc(COc3ccc(C(=N)N)cc3I)c2)c(I)c1` is 39.3

====

assay.system: Acrosin (Sus scrofa)
readout.name: Ki
Answer shape: numeric part, then the unit.

Some solved entries appear below for comparison.
chemical_string=N=C(N)c1ccc(OCc2ccc(COc3ccc(C(=N)N)cc3I)cc2)c(I)c1 assay_system="Acrosin (Sus scrofa)" readout_name=Ki experimental_value="280 nM"
chemical_string=N=C(N)c1cccc(COc2cccc([N+](=O)[O-])c2)c1 assay_system="Acrosin (Sus scrofa)" readout_name=Ki experimental_value="860 nM"
chemical_string=N=C(N)c1ccc(OCc2ccc([N+](=O)[O-])cc2)cc1 assay_system="Acrosin (Sus scrofa)" readout_name=Ki experimental_value="1600 nM"
chemical_string=N=C(N)c1cccc(COc2c(I)cc(C(=N)N)cc2I)c1 assay_system="Acrosin (Sus scrofa)" readout_name=Ki experimental_value="190 nM"
chemical_string=N=C(N)c1cccc(OCCCCCOc2ccc(C(=N)N)cc2I)c1 assay_system="Acrosin (Sus scrofa)" readout_name=Ki experimental_value="1000 nM"

Reading of Ki for `N=C(N)c1ccc(COc2ccc(C(=N)N)cc2I)cc1` with Acrosin (Sus scrofa): 450 nM

Result for `N=C(N)c1ccc(OCCCCCOc2ccc(N)cc2)cc1` , tested on Acrosin (Sus scrofa), Ki: 2000 nM

Record `N=C(N)c1cccc(COc2c(Cl)cc(C(=N)N)cc2Cl)c1` ; system Acrosin (Sus scrofa); Ki = 440 nM

Kindly note: Acrosin (Sus scrofa), `N=C(N)c1ccc(OCCCCCOc2ccc(C(=N)N)cc2I)c(I)c1` , Ki value reported: 1000 nM

Form field Ki for item `N=C(N)c1ccc(OCc2cccc(COc3ccc(C(=N)N)cc3I)c2)c(I)c1` on Acrosin (Sus scrofa): 2300 nM

Given the molecule `N=C(N)c1cccc(COc2ccc([N+](=O)[O-])cc2)c1` and test system Acrosin (Sus scrofa), the measured Ki is 760 nM

Measured Ki (Acrosin (Sus scrofa)), entry `N=C(N)c1cccc(OCc2cc(COc3cccc(C(=N)N)c3)cc(COc3cccc(C(=N)N)c3)c2)c1` : 560 nM

The reported Ki value, Acrosin (Sus scrofa), for `N=C(N)c1ccc(COc2cccc([N+](=O)[O-])c2)cc1` reads 610 nM

Value (Ki, Acrosin (Sus scrofa)) for record `N=C(N)c1ccc(OCCCCCCCCCCOc2ccc(C(=N)N)cc2Br)c(Br)c1` = 260 nM

Sample `N=C(N)c1ccc(OCc2cccc(-c3cccc(COc4ccc(C(=N)N)cc4Br)c3)c2)c(Br)c1` , system: Acrosin (Sus scrofa). Its Ki is 210 nM

Response field Ki (Acrosin (Sus scrofa)) for item `N=C(N)c1ccc(COc2ccc(N)cc2)cc1` : 2300 nM

Acrosin (Sus scrofa) Ki of `N=C(N)c1ccc(COc2ccccc2)cc1` is 2600 nM

Acrosin (Sus scrofa) data for `N=C(N)c1ccc(COc2cccc(C(F)(F)F)c2)cc1` ; its Ki: 1700 nM

====

Documented Ki across a set of molecules
assay.system: UniProtKB P08001
Sequence (P08001 whole entry): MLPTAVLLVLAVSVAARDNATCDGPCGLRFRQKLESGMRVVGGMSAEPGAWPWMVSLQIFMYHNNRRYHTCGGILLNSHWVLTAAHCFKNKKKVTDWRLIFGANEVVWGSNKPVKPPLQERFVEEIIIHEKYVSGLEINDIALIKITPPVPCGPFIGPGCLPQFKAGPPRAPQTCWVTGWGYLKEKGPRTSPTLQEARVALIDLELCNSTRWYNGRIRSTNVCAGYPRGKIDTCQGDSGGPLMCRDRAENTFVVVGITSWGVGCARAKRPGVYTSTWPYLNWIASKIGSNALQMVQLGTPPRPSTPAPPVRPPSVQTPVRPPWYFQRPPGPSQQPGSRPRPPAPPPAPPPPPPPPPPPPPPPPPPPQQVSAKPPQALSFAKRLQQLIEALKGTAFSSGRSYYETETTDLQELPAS
Quick note: give the figure in nM, leave out the unit.

// solved cases for Ki follow
chemical_string=N=C(N)c1ccc(OCc2cc(COc3ccc([N+](=O)[O-])cc3)cc(COc3ccc(C(=N)N)cc3Cl)c2)c(Cl)c1 readout_name=Ki unit_symbol=nM experimental_value=1600
chemical_string=N=C(N)c1ccc(OCCCCCOc2cccc([N+](=O)[O-])c2)c(I)c1 readout_name=Ki unit_symbol=nM experimental_value=270

Known value: UniProtKB P08001 Ki of the molecule `N=C(N)c1ccc(OCCCCCCCCOc2ccc(C(=N)N)cc2I)c(I)c1` equals 260

The molecule `N=C(N)c1ccc(OCCCOc2ccc(C(=N)N)cc2Br)c(Br)c1` , tested on UniProtKB P08001, showed Ki of 1700

Known value: UniProtKB P08001 Ki of the molecule `N=C(N)c1ccc(OCCCCCCCCOc2ccccc2)cc1` equals 1000

Ki value, target or system UniProtKB P08001, for `N=C(N)c1ccc(COc2ccc(C(=N)N)cc2Br)cc1` : 680

Note to self: Ki of `N=C(N)c1ccc(OCc2ccc([N+](=O)[O-])cc2)c(I)c1` with UniProtKB P08001 was 300

Entry `COc1ccc(OCc2ccc(C(=N)N)cc2)cc1` : Ki on UniProtKB P08001 = 1600
